These data points were gathered from patent US20180371107A1.

Would you kindly list pIC50 for each of these binders?
Target: T1, human NSP4 (hNSP4), form not stated in Example 6 (human, UniProt Q6UWY2 34-283, limits assumed)
T1 sequence (looked up): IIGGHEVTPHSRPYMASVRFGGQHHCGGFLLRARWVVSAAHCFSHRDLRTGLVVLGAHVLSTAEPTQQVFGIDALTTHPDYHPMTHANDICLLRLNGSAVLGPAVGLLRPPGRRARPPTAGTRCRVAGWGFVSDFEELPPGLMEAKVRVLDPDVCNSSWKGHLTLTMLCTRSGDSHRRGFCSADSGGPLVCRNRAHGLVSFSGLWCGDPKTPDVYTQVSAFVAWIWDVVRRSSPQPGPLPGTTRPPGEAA
Experiment: phage competition binding assay (phage IC50), soluble hNSP4 competitor
A value of pIC50 is the negative decimal logarithm of a concentration given in moles per litre.

Ask | Entry anti-NSP4 antibody 3-5 (antibody, V domains shown, also called Ab 3-5; Ab35) VH: EVQLVESGGGLVQPGGSLRLSCAASGFTFSDNDISWVRQAPGKGLEWVGSISPDNGDTNYADSVKGRFTISADTSKNTAYLQMNSLRAEDTAVYYCARDDVPAVFTSAMDYWGQGTLVTVSS VL: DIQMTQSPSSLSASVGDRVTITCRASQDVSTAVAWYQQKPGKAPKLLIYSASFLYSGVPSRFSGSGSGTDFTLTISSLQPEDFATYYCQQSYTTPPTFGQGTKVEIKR has what pIC50?
Reply | 7.48

Ask | Next up: affinity matured anti-NSP4 antibody clone 35.50 (Fab, V domains shown) VH: EVQLVESGGGLVQPGGSLRLSCAASGFTFSDNDISWVRQAPGKGLEWVGSISPDNGDTNYADSVKGRFTISADTSKNTAYLQMNSLRAEDTAVYYCARDDVPAVFTSAMDYWGQGTLVTVSS VL: DIQMTQSPSSLSASVGDRVTITCRASQDVSTAVAWYQQKPGKAPKLLIYSASFLYSGVPSRFSGSGSGTDFTLTISSLQPEDFATYYCQQSYDFPLTFGQGTKVEIKR
Reply | 7.64

Ask | Further, for affinity matured anti-NSP4 antibody clone 35.14 (Fab, V domains shown) VH: EVQLVESGGGLVQPGGSLRLSCAASGFTFSDNDISWVRQAPGKGLEWVGSISPDNGDTNYADSVKGRFTISADTSKNTAYLQMNSLRAEDTAVYYCARDDVPAVFTSAMDYWGQGTLVTVSS VL: DIQMTQSPSSLSASVGDRVTITCRASQDVSTAVAWYQQKPGKAPKLLIYSASFLYSGVPSRFSGSGSGTDFTLTISSLQPEDFATYYCQQSYGFPLTFGQGTKVEIKR ?
Reply | 7.63
